test: amyloid nucleation score (Sup35N fusion, yeast selection) (log enrichment); library NNK1; higher = more nucleation; inactive = no reads after selection;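 note: zero at mode of non-aggregating sequences after 7 days selection at 30°C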
Give t when the value for amyloid nucleation score is at least 0.5. Give f when it is less.

Example entries begin here.
{"substance": "RLCASYSKYETFVADARRDG", "assigned class": "f"}
{"substance": "RSFVLLGFPSY", "assigned class": "f"}
{"substance": "CRYTMGSNKVALFYGWMHPG", "assigned class": "t"}
{"substance": "LNVIVKDRGPCKSSSEIAVD", "assigned class": "f"}

## Task Hello, I need to know if SDDLGE has measured amyloid nucleation score not below 0.5. Thanks!
## Result f

## Task Hello, I need to know if VFYLCFTSQYYLSAGTVNAW has measured amyloid nucleation score not below 0.5. Thanks!
## Result t

## Task Hello, I need to know if HEFHRLDVAVYRG has measured amyloid nucleation score not below 0.5. Thanks!
## Result f

## Task Hello, I need to know if VKLDIVFLMVFGPLCSESPF has measured amyloid nucleation score not below 0.5. Thanks!
## Result t

## Task Hello, I need to know if MRNYGILFPYLFYMSVSRVL has measured amyloid nucleation score not below 0.5. Thanks!
## Result f

## Task Hello, I need to know if SLSAPLNTLVFVVYIQWWEM has measured amyloid nucleation score not below 0.5. Thanks!
## Result f

## Task Hello, I need to know if KRRGSFKVLYSHSVGLYQSF has measured amyloid nucleation score not below 0.5. Thanks!
## Result t

## Task Hello, I need to know if GNVYVKISVTVFADDYVLRV has measured amyloid nucleation score not below 0.5. Thanks!
## Result t

## Task Hello, I need to know if PYHEMGIYYLGGLYSK has measured amyloid nucleation score not below 0.5. Thanks!
## Result t

## Task Hello, I need to know if DCYSRNVDLYGCGDDGDILL has measured amyloid nucleation score not below 0.5. Thanks!
## Result f
